system-name: Bromodomain-containing protein 4 (Homo sapiens, UniProt O60885)
measurement-notes: Inhibition of FAM-labeled ZBA248 binding to recombinant human N-terminal His6-tagged BRD4 bromodomain 1 (44 to 168 residues) expressed in Rosetta2 DE3 cells after 30 mins by Flourescence polarization assay
Type: biochemical
measurement-name: log10 of IC50 (log10 of the value in µM)
Log scale reminder: IC50 in µM, then log10 taken.

Before answering, review these 3 worked examples.
Q: Which value of log10 of IC50 has been reported for "COc1cc2c(cc1-c1c(C)noc1C)[nH]c1nc(C)nc(-c3cc(C)nc4ccccc34)c12" in the records?
Result: -1.71

Q: Which value of log10 of IC50 has been reported for "COc1cc2c(cc1-c1c(C)noc1C)[nH]c1ncnc(-c3nn(C)c4ccccc34)c12" in the records?
Result: -0.83

Q: Which value of log10 of IC50 has been reported for "COc1cc2c(cc1-c1c(C)noc1C)[nH]c1ncnc(-c3c(C)nn(C)c3C)c12" in the records?
Result: -1.39

Others:
Q: Which value of log10 of IC50 has been reported for "COc1cc2c(cc1-c1c(C)noc1C)[nH]c1nc(C)nc(-c3cccc4ccncc34)c12" in the records?
Result: -0.50

Q: Which value of log10 of IC50 has been reported for "COc1cc2c(cc1-c1c(C)noc1C)[nH]c1ncnc(-c3c(C)noc3C)c12" in the records?
Result: -0.99

Q: Which value of log10 of IC50 has been reported for "COc1cc2c(cc1-c1c(C)noc1C)[nH]c1ncnc(-c3cnoc3)c12" in the records?
Result: 0.31

Q: Which value of log10 of IC50 has been reported for "COc1cc2c(cc1-c1c(C)noc1C)[nH]c1nc(C)nc(-c3c(C)[nH]c4ccccc34)c12" in the records?
Result: -2.21

Q: Which value of log10 of IC50 has been reported for "COc1cc2c(cc1-c1c(C)noc1C)[nH]c1nc(C)nc(-c3cc(C(F)(F)F)nc4ccccc34)c12" in the records?
Result: -0.41

Q: Which value of log10 of IC50 has been reported for "COc1cc2c(cc1-c1c(C)noc1C)[nH]c1ncnc(N[C@H](C)c3ccccn3)c12" in the records?
Result: -1.41

Q: Which value of log10 of IC50 has been reported for "COc1cc2c(cc1-c1c(C)noc1C)[nH]c1ncnc(-c3c(C)[nH]c4ccccc34)c12" in the records?
Result: -2.30

Q: Which value of log10 of IC50 has been reported for "COc1cc2c(cc1-c1c(C)noc1C)[nH]c1ncnc(-c3c(C)oc4ccccc34)c12" in the records?
Result: -1.49

Q: Which value of log10 of IC50 has been reported for "COc1cc2c(cc1-c1c(C)noc1C)[nH]c1ncnc(-c3cn[nH]c3)c12" in the records?
Result: -0.41

---

System: MV4-11
measurement-notes: Growth inhibition of human MV4-11 cells after 4 days by WST-8 assay
Assay type: functional, cell-based
condition: MV4-11, 96 h
Below is a list of entries, each paired with its recorded IC50 value.

Before answering, review these 2 worked examples.
Q: Recall the recorded IC50 for "COc1cc2c(cc1-c1c(C)noc1C)[nH]c1ncnc(-c3nn(C)c4ccccc34)c12" with MV4-11 and state it.
Result: > 10 µM

Q: Recall the recorded IC50 for "COc1cc2c(cc1-c1c(C)noc1C)[nH]c1nc(C)nc(-c3cccc4ccncc34)c12" with MV4-11 and state it.
Result: > 1 µM

Next compound, please.
Q: Recall the recorded IC50 for "COc1cc2c(cc1-c1c(C)noc1C)[nH]c1ncnc(-n3nnc4ccccc43)c12" with MV4-11 and state it.
Result: > 10 µM
